- Test system: NHDF cells
- protocol.description: Skin type I collagen synthesis promoting assay (ELISA, with MTT)
- Format: cell-based, human
- condition.info: 5 μg/mL, fold of control
recorded.metric: CP/CV value (collagen production %/cell viability %)
Give bare numbers.

C[C@@H]1CC[C@]2(C(=O)O)CC[C@]3(C)C(=CC[C@@H]4[C@@]5(C)C[C@@H](O)[C@H](OC(=O)/C=C/c6ccc(O)cc6)C(C)(C)[C@@H]5CC[C@]43C)[C@@H]2[C@]1(C)O (relative stereo) [Compound 17, 3-O-trans-p-coumaroyl tormentic acid]; 1.2
COC(=O)[C@]12CCC(C)(C)C[C@@H]1C1=CC[C@@H]3[C@@]4(C)C[C@@H](O)[C@H](O)C(C)(C)C4CC[C@@]3(C)[C@]1(C)CC2 (stereo partly drawn) [Compound 5, Methyl maslinate]; 1.2

Data request: Endpoint output: CP/CV value (collagen production %/cell viability %) of `C[C@H]1[C@H](C)CC[C@]2(C(=O)O)CC[C@]3(C)C(=CC[C@@H]4[C@@]5(C)CCC(=O)C(C)(C)[C@@H]5CC[C@]43C)[C@H]12` . Value?
Data returned: 1.2
